Recorded below: Ki, system NS3 (Hepatitis C virus).
Numbered stars: 1 amine (or outer) side, 2 acyl side, 3 side chain; on linkers, the order of the positions; unused ones are H or OH. Square brackets hold non-standard residues; d marks the D form. Peptide text beside a SMILES is read from it. * marks the point of attachment. Pro(3R,4S-CMe2) = CC1(C)[C@@H]2[C@@H](C(=O)O)NC[C@@H]21; Isobutyloxycarbonyl = CC(C)COC(=O)*; X1 = O=C(C(=O)[*:2])C(CC1CC1)N[*:1]; X3 = CCCCC(N[*:1])C(=O)C(=O)[*:2]; X2 = CCCC(N[*:1])C(=O)C(=O)[*:2]; Chg = N[C@H](C(=O)O)C1CCCCC1; Phg = N[C@H](C(=O)O)c1ccccc1; Tle = CC(C)(C)[C@H](N)C(=O)O; Boc = CC(C)(C)OC(=O)*
Value expressed in nM; do not type the unit.

Worked cases, Ki given:
• CCCCC(NC(=O)[C@@H]1[C@@H]2[C@H](CN1C(=O)[C@@H](NC(=O)OC(C)(C)C)C(C)(C)C)C2(C)C)C(=O)C(=O)NCC(=O)N[C@H](C(=O)N(C)C)c1ccccc1 (stereo partly drawn) (Boc-[Tle][Pro(3R,4S-CMe2)][X3]G[Phg]-NMe2) = 10
• CCCC(NC(=O)[C@@H]1[C@@H]2[C@H](CN1C(=O)[C@@H](NC(=O)OCC(C)C)C1CCCCC1)C2(C)C)C(=O)C(=O)NCC(=O)N[C@H](C(=O)N(C)C)c1ccccc1 (stereo partly drawn) (Isobutyloxycarbonyl-[Chg][Pro(3R,4S-CMe2)][X2]G[Phg]-NMe2) = 10
• CN(C)C(=O)[C@@H](NC(=O)CNC(=O)C(=O)C(CC1CC1)NC(=O)[C@@H]1[C@@H]2[C@H](CN1C(=O)[C@@H](NC(=O)OC(C)(C)C)C(C)(C)C)C2(C)C)c1ccccc1 (stereo partly drawn) (Boc-[Tle][Pro(3R,4S-CMe2)][X1]G[Phg]-NMe2) = 3.8

NS3 (Hepatitis C virus) data for CCCC(NC(=O)[C@@H]1CCCN1C(=O)[C@@H](NC(=O)OCC(C)C)C1CCCCC1)C(=O)C(=O)NCC(=O)N[C@H](C(=O)N(C)C)c1ccccc1 (some centres undefined) (Isobutyloxycarbonyl-[Chg]P[X2]G[Phg]-NMe2) ; its Ki: 10000
